tested system: HhalCSP15
method: Fluorescence competitive binding assay with 1-NPN as fluorescent probe
cond: Ki=IC50/(1+[1-NPN]/K1-NPN); HhalCSP15 and 1-NPN 2 μM, pH 7.4; triplicate; read-out: Ki, dissociation constant
pKi: −log10 of the molar value.
pKi for assorted compounds
observed property: pKi

compound	observed property	readout value
CC/C=C\CCOC(=O)c1ccccc1 [cis-3-Hexen-1-yl benzoate]	pKi	4.98
CCC\C=C/C=C/C=C/C(=O)OC [Methyl (2E,4E,6Z)-decatrienoate]	pKi	5.02
CC(=O)/C=C/C1=C(C)CCCC1(C)C [β-Ionone]	pKi	4.92

----------
System: HhalCSP15
method: Fluorescence competitive binding assay with 1-NPN as fluorescent probe
Design: species or system Halyomorpha halys
cond: fluorescence binding experiments
observed property: binding ability with HhalCSP15 (in words)

molecule	readout value
CCCCCCCCCCCCC	could not bind
CC(=O)/C=C/C1=C(C)CCCC1(C)C	strong binding abilities
CC/C=C\CCOC(=O)c1ccccc1 [cis-3-Hexen-1-yl benzoate]	strong binding abilities
CCCCCCC/C=C/C=O [trans-2-Decenal]	could not bind
